# STUDY TARGET: EGFR L858R (BaF3-L858R cells) (Homo sapiens, UniProt P00533, L858R)
# Construct: host or cells: BaF3
# Sequence (P00533 25-1210 L858R): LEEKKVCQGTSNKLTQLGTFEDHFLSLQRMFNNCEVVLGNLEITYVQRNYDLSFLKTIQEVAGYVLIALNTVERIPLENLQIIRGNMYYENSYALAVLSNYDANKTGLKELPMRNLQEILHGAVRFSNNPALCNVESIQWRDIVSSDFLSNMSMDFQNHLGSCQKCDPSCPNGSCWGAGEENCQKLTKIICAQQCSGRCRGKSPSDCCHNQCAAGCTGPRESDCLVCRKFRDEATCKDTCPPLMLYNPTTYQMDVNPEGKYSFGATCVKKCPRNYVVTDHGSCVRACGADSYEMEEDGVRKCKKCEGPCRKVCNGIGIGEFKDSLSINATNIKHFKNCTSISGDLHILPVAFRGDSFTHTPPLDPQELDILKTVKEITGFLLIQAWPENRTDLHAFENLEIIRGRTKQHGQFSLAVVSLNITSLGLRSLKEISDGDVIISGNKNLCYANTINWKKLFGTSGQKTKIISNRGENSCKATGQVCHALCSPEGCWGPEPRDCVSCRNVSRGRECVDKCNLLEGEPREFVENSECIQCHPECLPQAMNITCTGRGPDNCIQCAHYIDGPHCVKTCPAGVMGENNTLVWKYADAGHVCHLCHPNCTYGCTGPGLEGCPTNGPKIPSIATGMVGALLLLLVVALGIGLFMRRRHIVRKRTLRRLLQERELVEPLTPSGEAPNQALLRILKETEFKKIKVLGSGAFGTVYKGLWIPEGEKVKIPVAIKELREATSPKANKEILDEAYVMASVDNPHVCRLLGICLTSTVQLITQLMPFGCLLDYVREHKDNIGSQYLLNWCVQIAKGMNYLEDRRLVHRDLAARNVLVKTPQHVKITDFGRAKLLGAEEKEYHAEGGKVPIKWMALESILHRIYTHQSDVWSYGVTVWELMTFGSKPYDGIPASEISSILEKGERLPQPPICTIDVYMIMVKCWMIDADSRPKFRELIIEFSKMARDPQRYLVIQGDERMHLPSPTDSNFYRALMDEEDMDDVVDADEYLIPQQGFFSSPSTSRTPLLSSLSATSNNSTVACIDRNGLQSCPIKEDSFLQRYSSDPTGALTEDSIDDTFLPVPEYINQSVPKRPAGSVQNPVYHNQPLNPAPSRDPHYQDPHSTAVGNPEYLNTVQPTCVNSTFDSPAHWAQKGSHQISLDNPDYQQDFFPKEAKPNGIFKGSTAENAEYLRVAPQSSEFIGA
# TEST: Cell degradation of EGFR, HTRF assay, BaF3-L858R cells
# Type: cell-based
# RECORDED CONDITIONS: 16 h treatment, maximum percentage of degradation
# Procedure: BaF3-L858R (abbv. L858R) cell were purchased from Kangyuan Bochuang Biotechnology (Beijing) Co., Ltd. H1975-#8 and BaF3-L858R cells are treated with compounds diluted in 0.1% DMSO cell culture medium on day 2, incubate for 16 h, 37° C., 5% CO2. the final concentration of compounds in all assay is start with 10 uM, 5-fold dilution, total 8 doses were included. […] High control=Cell group with added DMSO and without compound, indicating microplate readings without EGFR degradation; […]
MEASUREMENT KIND: Dmax (%)

MOLECULE	STUDY TARGET	Dmax / %
Cc1cc2cc(n1)-c1cnn(C)c1OC[C@H]1CCC(C1)CN1/C(=N/C2=O)Nc2ccc(N3CCN(C4CCN(c5ccc(NC6CCC(=O)NC6=O)nc5C)CC4)CC3)cc21 (some centres unmarked)	EGFR L858R (BaF3-L858R cells) (Homo sapiens, UniProt P00533, L858R)	80.6
COC[C@@H]1CN(c2ccc3c(c2)N2CC4CC[C@H](COc5c(c(C(F)F)nn5C)-c5cc(cc(C)n5)C(=O)/N=C/2N3)C4)CCN1C1CCN(c2cc(F)c([C@H]3CCC(=O)NC3=O)c(F)c2)CC1	EGFR L858R (BaF3-L858R cells) (Homo sapiens, UniProt P00533, L858R)	78
Cc1cc2cc(n1)-c1cnn(C)c1OC[C@H]1CCC(C1)CN1/C(=N/C2=O)Nc2ccc(N3CCC(N4CCC(Oc5cc(F)c([C@H]6CCC(=O)NC6=O)c(F)c5)CC4)CC3)cc21	EGFR L858R (BaF3-L858R cells) (Homo sapiens, UniProt P00533, L858R)	70.5
COC[C@H]1CN(c2cc3c(cc2C)N/C2=N\C(=O)c4cc(C)nc(c4)-c4c(C)nn(C)c4OC[C@H]4CC[C@H](C4)CN23)CCN1C1CCN(c2cc(F)c([C@H]3CCC(=O)NC3=O)c(F)c2)CC1	EGFR L858R (BaF3-L858R cells) (Homo sapiens, UniProt P00533, L858R)	84.8
Cc1cc2cc(n1)-c1c(C)nn(C)c1OC[C@H]1CC[C@H](C1)CN1/C(=N/C2=O)Nc2ccc(N3CCN([C@H]4CCN(c5cnc(C6CCC(=O)NC6=O)cc5C)CC4(F)F)CC3)cc21 (some centres unmarked)	EGFR L858R (BaF3-L858R cells) (Homo sapiens, UniProt P00533, L858R)	81.8

====

# STUDY TARGET: p-EGFR Del19/C797S (H1975-clone #23 cells) (Homo sapiens)
# TEST: Cell p-EGFR inhibition assay, HTRF, H1975-clone#23 (DEL19/C797S) cells
# RECORDED CONDITIONS: 16 h treatment, pEGFR inhibition
pIC50: −log10 of the molar value.
MEASUREMENT KIND: pIC50

COMPOUND	MEASUREMENT KIND	NUMBER
Cc1cc2cc(n1)-c1c(C)nn(C)c1OC[C@H]1CC[C@H](C1)CN1/C(=N/C2=O)Nc2ccc(N3CCN(C4CCN(c5cc(F)c([C@H]6CCC(=O)NC6=O)c(F)c5)CC4)C[C@H]3C)cc21 [Example 190]	pIC50	8.92
COC[C@H]1CN(c2ccc3c(c2)N2C[C@H]4CC[C@@H](COc5c(c(C)nn5C)-c5cc(cc(C)n5)C(=O)/N=C/2N3)C4)CCN1C1CCN(c2cc(F)c([C@H]3CCC(=O)NC3=O)c(F)c2)CC1 [Example 150]	pIC50	8.67
Cc1cc2cc(n1)-c1c(C)nn(C)c1OC[C@H]1CC[C@H](C1)CN1/C(=N/C2=O)Nc2ccc(N3CCN(C4CCN(c5cc(F)c([C@H]6CCC(=O)NC6=O)c(F)c5)CC4)C[C@@H]3C)cc21 [Example 195]	pIC50	8.84

====

# STUDY TARGET: p-EGFR Del19/C797S (H1975-clone #23 cells) (Homo sapiens, UniProt P00533)
# Sequence (P00533 with tags, fused parts or gaps DEL746-750/C797S, form open): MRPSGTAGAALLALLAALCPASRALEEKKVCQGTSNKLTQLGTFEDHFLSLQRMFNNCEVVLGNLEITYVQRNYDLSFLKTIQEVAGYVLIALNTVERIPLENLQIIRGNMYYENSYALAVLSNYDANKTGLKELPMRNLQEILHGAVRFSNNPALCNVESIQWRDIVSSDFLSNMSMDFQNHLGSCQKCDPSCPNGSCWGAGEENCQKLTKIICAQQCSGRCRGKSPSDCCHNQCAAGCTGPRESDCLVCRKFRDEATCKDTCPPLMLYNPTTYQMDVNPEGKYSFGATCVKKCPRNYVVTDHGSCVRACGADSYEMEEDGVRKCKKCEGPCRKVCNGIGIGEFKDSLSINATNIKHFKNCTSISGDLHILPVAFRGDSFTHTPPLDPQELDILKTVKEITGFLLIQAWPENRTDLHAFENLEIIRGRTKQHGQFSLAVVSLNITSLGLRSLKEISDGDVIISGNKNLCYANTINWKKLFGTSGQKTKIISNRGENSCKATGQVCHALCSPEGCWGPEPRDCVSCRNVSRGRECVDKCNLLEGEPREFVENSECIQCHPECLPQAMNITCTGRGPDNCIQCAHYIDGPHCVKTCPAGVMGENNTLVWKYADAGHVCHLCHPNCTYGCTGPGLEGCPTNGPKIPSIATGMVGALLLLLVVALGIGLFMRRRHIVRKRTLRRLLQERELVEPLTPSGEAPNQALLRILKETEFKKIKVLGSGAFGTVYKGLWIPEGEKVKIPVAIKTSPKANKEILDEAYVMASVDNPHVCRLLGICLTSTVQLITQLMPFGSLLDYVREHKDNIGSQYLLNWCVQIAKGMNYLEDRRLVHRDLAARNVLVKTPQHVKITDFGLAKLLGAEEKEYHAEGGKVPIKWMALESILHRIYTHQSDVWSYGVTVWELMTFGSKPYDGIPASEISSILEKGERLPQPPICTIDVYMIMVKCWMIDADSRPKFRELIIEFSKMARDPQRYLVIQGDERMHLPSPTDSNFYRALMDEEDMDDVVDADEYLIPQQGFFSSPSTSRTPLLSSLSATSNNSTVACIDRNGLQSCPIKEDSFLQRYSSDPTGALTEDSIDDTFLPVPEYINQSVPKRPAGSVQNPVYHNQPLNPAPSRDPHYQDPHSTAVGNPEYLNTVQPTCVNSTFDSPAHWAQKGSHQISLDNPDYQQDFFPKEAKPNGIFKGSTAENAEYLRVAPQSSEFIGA
# TEST: Cell p-EGFR inhibition assay, HTRF, H1975-clone#23 (DEL19/C797S) cells
# RECORDED CONDITIONS: 16 h treatment, pEGFR inhibition
MEASUREMENT KIND: IC50 (nM)

Take a look at these entries with their results.
COMPOUND	MEASUREMENT KIND	NUMBER
Cc1cc2cc(n1)-c1c(C)nn(C)c1OC[C@H]1CCC(C1)CN1/C(=N/C2=O)Nc2ccc(N3CCN(C4CCN(c5cc(F)c([C@H]6CCC(=O)NC6=O)c(F)c5)CC4)[C@@H](C)C3)cc21 [Example 135]	IC50	1.4
COC[C@H]1CN(c2ccc3c(c2)N2C[C@@H]4CC[C@H](COc5c(cnn5C)-c5cc(cc(C)n5)C(=O)/N=C/2N3)C4)CCN1C1CCN(c2cc(F)c([C@H]3CCC(=O)NC3=O)c(F)c2)CC1 [Example 64]	IC50	0.7

[1] COCCn1nc(C)c2c1OC[C@H]1CC[C@H](C1)CN1/C(=N/C(=O)c3cc(C)nc-2c3)Nc2ccc(N3CCN(C4CCN(c5cc(F)c([C@H]6CCC(=O)NC6=O)c(F)c5)CC4)CC3)cc21 [Example 161]
[2] COC[C@H]1CN(c2ccc3c(c2)N2C[C@@H]4CC[C@H](COc5c(cnn5C)-c5cc(cc(C)n5)C(=O)/N=C/2N3)C4)CCN1C1CN(C2CCN(c3cc(F)c([C@H]4CCC(=O)NC4=O)c(F)c3)CC2)C1 [Example 208]
[3] Cc1cc2cc(n1)-c1c(C)nn(C)c1OC[C@H]1CC[C@H](C1)CN1/C(=N/C2=O)Nc2ccc(N3CC(N(C)C4CCN(c5cc(F)c([C@H]6CCC(=O)NC6=O)c(F)c5)CC4)C3)cc21 [Example 153]
Order each entry by recorded IC50, climbing from the minimum. A ranking is expressed here by listing the labels in the requested order.
1, 3, 2
(1: 0.49 nM, 3: 1.56 nM, 2: 3.02 nM)

====

# STUDY TARGET: EGFR-L858R/C797S (H1975-clone #8 cells) (Homo sapiens, UniProt P00533, C797S/L858R)
# Construct: expressed in transfected cells; host or cells: H1975 (endogenous EGFR knocked out, clone #8)
# Sequence (P00533 25-1210 C797S/L858R): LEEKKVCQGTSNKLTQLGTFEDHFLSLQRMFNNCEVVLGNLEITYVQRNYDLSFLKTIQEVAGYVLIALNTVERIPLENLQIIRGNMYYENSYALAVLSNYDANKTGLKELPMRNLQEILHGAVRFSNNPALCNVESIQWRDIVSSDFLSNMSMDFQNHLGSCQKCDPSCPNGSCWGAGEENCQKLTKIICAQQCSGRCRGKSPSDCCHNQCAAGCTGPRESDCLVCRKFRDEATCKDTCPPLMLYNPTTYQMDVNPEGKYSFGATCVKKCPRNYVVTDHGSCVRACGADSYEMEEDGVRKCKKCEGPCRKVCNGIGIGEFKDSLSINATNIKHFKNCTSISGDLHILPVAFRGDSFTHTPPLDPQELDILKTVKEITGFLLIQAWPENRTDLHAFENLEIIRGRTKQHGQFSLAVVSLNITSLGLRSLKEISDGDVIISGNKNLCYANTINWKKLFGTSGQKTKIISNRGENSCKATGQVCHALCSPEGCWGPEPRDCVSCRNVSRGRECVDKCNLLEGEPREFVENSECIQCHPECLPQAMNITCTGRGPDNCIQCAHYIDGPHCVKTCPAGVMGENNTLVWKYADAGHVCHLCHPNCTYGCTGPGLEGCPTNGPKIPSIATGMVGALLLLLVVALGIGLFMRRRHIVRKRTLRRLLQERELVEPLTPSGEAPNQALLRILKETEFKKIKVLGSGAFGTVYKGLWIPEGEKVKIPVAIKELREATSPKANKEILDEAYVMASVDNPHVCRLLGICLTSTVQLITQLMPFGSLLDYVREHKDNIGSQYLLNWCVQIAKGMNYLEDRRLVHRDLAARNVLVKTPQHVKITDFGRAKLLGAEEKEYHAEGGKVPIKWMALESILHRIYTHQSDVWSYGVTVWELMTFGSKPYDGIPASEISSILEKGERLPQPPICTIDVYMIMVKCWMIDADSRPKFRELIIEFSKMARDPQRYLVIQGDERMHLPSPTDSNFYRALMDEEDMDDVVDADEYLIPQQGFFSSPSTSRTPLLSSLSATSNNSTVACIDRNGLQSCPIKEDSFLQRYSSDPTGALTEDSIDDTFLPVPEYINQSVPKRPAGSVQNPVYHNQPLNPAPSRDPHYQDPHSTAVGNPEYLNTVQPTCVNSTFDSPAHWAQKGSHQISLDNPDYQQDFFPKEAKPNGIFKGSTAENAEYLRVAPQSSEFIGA
# TEST: Cell degradation of EGFR, HTRF assay, H1975-clone#8 (L858R/C797S) cells
# Assay type: cell-based
# RECORDED CONDITIONS: 16 h treatment, EGFR degradation
MEASUREMENT KIND: DC50 (nM)

MOLECULE	DC50 (nM)
Cc1cc2cc(n1)-c1cnn(C)c1OC[C@H]1CCC(C1)CN1/C(=N/C2=O)Nc2ccc(N3CCN(C4CCN(c5ccc(OC6CCC(=O)NC6=O)cc5F)CC4)CC3)cc21 (stereo partly drawn) [Example 88]	1.63

[a] COC[C@H]1CN(c2ccc3c(c2)N2C[C@@H]4CC[C@H](COc5c(cnn5C)-c5cc(cc(C)n5)C(=O)/N=C/2N3)C4)CCN1C1CCN(c2cc(F)c([C@H]3CCC(=O)NC3=O)c(F)c2)CC1 [Example 64]
[b] Cc1cc2cc(n1)-c1c(C)nn(C)c1OC[C@H]1CC[C@H](C1)CN1/C(=N/C2=O)Nc2ccc(N3CCC(CN(C)C4CCN(c5cc(F)c([C@H]6CCC(=O)NC6=O)c(F)c5)CC4)CC3)cc21 [Example 138]
[c] COC[C@@H]1CN(c2cc3c(cc2F)N/C2=N\C(=O)c4cc(C)nc(c4)-c4c(C)nn(C)c4OC[C@H]4CC[C@H](C4)CN23)CCN1C1CCN(c2cc(F)c([C@H]3CCC(=O)NC3=O)c(F)c2)CC1 [Example 169]
List the 3 entries from lowest DC50 to highest DC50 value. Please list the labels in the order you were asked to rank them.
b, a, c

[a] COC[C@@H]1CN(c2ccc3c(c2)N2C[C@@H]4CC[C@H](COc5c(cnn5C)-c5cc(cc(C)n5)C(=O)/N=C/2N3)C4)CCN1CC1CN(c2ccc3c(c2)C(=O)N(C2CCC(=O)NC2=O)C3=O)C1 (stereo partly drawn) [Example 69]
[b] Cc1cc2cc(n1)-c1cnn(C)c1OC[C@H]1CCC(C1)CN1/C(=N/C2=O)Nc2ccc(N3CCN(C4CCN(c5c(F)cc(NC6CCC(=O)NC6=O)cc5F)CC4)CC3)cc21 (stereo partly drawn) [Example 92]
[c] Cc1cc2cc(n1)-c1c(C)nn(C)c1OC[C@H]1CC[C@H](C1)CN1/C(=N/C2=O)Nc2ccc(N3CCN(C4CCN(c5cc(F)c([C@H]6CCC(=O)NC6=O)c(F)c5)CC4)C[C@@H]3C)cc21 [Example 195]
[d] COC[C@@H]1CN(c2ccc3c(c2)N2C[C@@H]4CC[C@H](COc5c(c(C)nn5C)-c5cc(cc(C)n5)C(=O)/N=C/2N3)C4)CCN1C1CCN(c2cc(F)c(C3CCC(=O)NC3=O)nc2C)CC1 (stereo partly drawn) [Example 89]
[e] COC[C@@H]1CN(c2ccc3c(c2)N2C[C@@H]4CC[C@H](COc5c(cnn5C)-c5cc(cc(C)n5)C(=O)/N=C/2N3)C4)CCN1CC1CN(c2ccc3c(c2)CN(C2CCC(=O)NC2=O)C3=O)C1 (stereo partly drawn) [Example 63]
Order the items by recorded DC50; the first position goes to the largest value. Please list each label once, in the requested order.
a, b, d, c, e
(a: 5.24 nM, b: 3.12 nM, d: 1.64 nM, c: 1.13 nM, e: 0.61 nM)

[1] Cc1cc2cc(n1)-c1c(C)nn(C)c1OC[C@H]1CC[C@H](C1)CN1/C(=N/C2=O)Nc2ccc(N3CCN(C4CCN(c5cc(F)c([C@H]6CCC(=O)NC6=O)c(F)c5)CC4)C[C@H]3CF)cc21 [Example 202]
[2] COCCn1nc(C)c2c1OC[C@H]1CC[C@H](C1)CN1/C(=N/C(=O)c3cc(C)nc-2c3)Nc2ccc(N3CCN(C4CCN(c5cc(F)c([C@H]6CCC(=O)NC6=O)c(F)c5)CC4)[C@@H](COC)C3)cc21 [Example 160]
[3] Cc1cc2cc(n1)-c1cnn(C)c1OC[C@H]1CCC(C1)CN1/C(=N/C2=O)Nc2ccc(N3CCC(CN4CC(Nc5cc(F)c([C@H]6CCC(=O)NC6=O)c(F)c5)C4)CC3)cc21 [Example 132]
[4] Cc1cc2cc(n1)-c1cnn(C)c1OC[C@H]1CCC(C1)CN1/C(=N/C2=O)Nc2ccc(N3CCN(C4CCN(c5cc(F)c([C@H]6CCC(=O)NC6=O)c(F)c5)CC4)C[C@@H]3CO)cc21 [Example 94]
[5] CCc1nn(C)c2c1-c1cc(cc(C)n1)C(=O)/N=C1\Nc3ccc(N4CCN(C5CCN(c6cc(F)c([C@H]7CCC(=O)NC7=O)c(F)c6)CC5)[C@@H](COC)C4)cc3N1C[C@@H]1CC[C@H](CO2)C1 [Example 175]
Order the records, beginning with the lowest DC50 and ending with the highest. Arrange the labels as the request states and list them.
4, 3, 2, 1, 5
(4: 0.83 nM, 3: 2.05 nM, 2: 3.01 nM, 1: 4.8 nM, 5: 7.25 nM)
